Origin of the recorded values: paper PMC8847695

Molecular target: DOT1L (1-416) (Homo sapiens, UniProt Q8TEK3)
Construct: made in house; host or cells: E. coli BL21 (DE3) pLysS
Sequence (Q8TEK3 1-416): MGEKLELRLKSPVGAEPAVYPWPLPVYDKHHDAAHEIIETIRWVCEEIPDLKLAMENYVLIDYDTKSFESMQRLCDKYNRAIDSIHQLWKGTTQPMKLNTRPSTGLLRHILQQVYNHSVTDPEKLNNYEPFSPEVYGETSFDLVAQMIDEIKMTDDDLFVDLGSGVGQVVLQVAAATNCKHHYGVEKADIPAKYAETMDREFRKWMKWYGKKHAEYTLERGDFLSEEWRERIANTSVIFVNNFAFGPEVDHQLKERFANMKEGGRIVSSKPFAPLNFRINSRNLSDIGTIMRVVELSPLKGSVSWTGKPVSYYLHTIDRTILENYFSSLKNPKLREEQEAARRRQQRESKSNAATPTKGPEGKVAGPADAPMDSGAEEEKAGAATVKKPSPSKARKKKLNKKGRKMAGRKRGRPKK
Experiment: STD-NMR fragment screening, DOT1L
Assay type: binding
Details: 1 = hit, 0 = no hit
parameter_measured: DOT1L (STD-NMR hit flag)

Use these answered entries as a reference point.
Brc1cncnc1 0
O=C(O)c1cc(Br)c[nH]1 0
Cn1nc(Br)c(C(=O)NCC(=O)O)c1N 0
Nc1cccc(Br)c1O 0
CCn1ncc(Br)c1CNC 0
OCc1c(Cl)nc2sccn12 0
Cc1noc(C)c1Br 0
Nc1ncnc(C(=O)O)c1Cl 0
Cc1c(Cl)cnc(N)c1Cl 1

(A) O=C(O)c1ccc(Cl)o1
(B) CN(C)S(=O)(=O)n1nccc1Br
(Q) Could you please tell me which of these two has the higher DOT1L (STD-NMR hit flag): A or B ? In your reply, give the label of the chosen option.
(A) B
(B: 1, A: 0)
